I'd appreciate it if you could supply MIC values for the items below.
Tested on: Staphylococcus aureus ATCC 6538P
Assay: MIC, Staphylococcus aureus ATCC 6538P (SA(1))
Type: cell-based
Details: Staphylococcus aureus, ATCC6538P, Staphylococcus aureus ATCC 6538P; read-out: MIC SA (1)

Bench note: what MIC did CCC1OC(=O)C(C)C(OC2CC(C)(OC)C(O)C(C)O2)C(C)C(OC2OC(C)CC([N+](C)(C)CCF)C2O)C2(C)CC(C)=C(O2)C(C)C(O)C1(C)O (centres unmarked) [Compound 32] show?
> 100 µg/mL

What do you get for CCC1OC(=O)C(C)C(OC2CC(C)(OC)C(OC=O)C(C)O2)C(C)C(OC2OC(C)CC([N+](C)(C)C)C2O)C2(C)CC(C)=C(O2)C(C)C(OS(C)(=O)=O)C1(C)O (centres unmarked) [Compound 4] ?
> 100 µg/mL

What do you get for CC[C@H]1OC(=O)[C@H](C)[C@@H](O[C@H]2C[C@@](C)(OC)[C@@H](O)[C@H](C)O2)[C@H](C)[C@@H](O[C@@H]2O[C@H](C)C[C@H]([N+](C)(C)C)[C@H]2O)[C@@]2(C)CC(C)C(O2)[C@H](C)[C@@H](O)[C@]1(C)O (some centres unmarked) [Compound 62] ?
> 100 µg/mL

What do you get for CCC1OC(=O)C(C)C(OC2CC(C)(OC)C(O)C(C)O2)C(C)C(OC2OC(C)CC(N(C)CC)C2O)C2(C)CC(C)=C(O2)C(C)C(O)C1(C)O (centres unmarked) [Compound 10] ?
> 100 µg/mL

Next item in the queue.
Bench note: what MIC did C#CC[N+](C)(C)C1CC(C)OC(OC2C(C)C(OC3CC(C)(OC)C(O)C(C)O3)C(C)C(=O)OC(CC)C3(C)OB(c4ccccc4)OC3C(C)C3=C(C)CC2(C)O3)C1O (centres unmarked) [Compound 56] show?
50 µg/mL

###

I'd appreciate it if you could supply MIC values for the items below.
Tested on: Staphylococcus aureus FDA 209P
Assay: MIC, Staphylococcus aureus FDA 209P (SA(2))
Type: cell-based
Conditions: Staphylococcus aureus, FDA209P, Staphylococcus aureus FDA 209P; read-out: MIC SA (2)

Bench note: what MIC did `CC[C@H]1OC(=O)[C@H](C)[C@@H](O[C@H]2C[C@@](C)(OC)[C@@H](O)[C@H](C)O2)[C@H](C)[C@@H](O[C@@H]2O[C@H](C)C[C@H]([N+](C)(C)CC)[C@H]2O)[C@@]2(C)CC(C)=C(O2)[C@H](C)[C@@H](O)[C@]1(C)O` show?
> 100 µg/mL

What do you get for C#CC[N+](C)(C)C1CC(C)OC(OC2C(C)C(OC3CC(C)(OC)C(O)C(C)O3)C(C)C(=O)OC(CC)C(C)(O)C(O)C(C)C3=C(C)CC2(C)O3)C1O (stereo not drawn) ?
100 µg/mL

List MIC for every entry below, keeping the order given.
1. CCC1OC(=O)C(C)C(OC2CC(C)(OC)C(O)C(C)O2)C(C)C(OC2OC(C)CC([N+](C)(C)C)C2O)C2(C)CC(C)=C(O2)C(C)C(OS(C)(=O)=O)C1(C)O (stereo not drawn)
2. C=CCNC1CC(C)OC(OC2C(C)C(OC3CC(C)(OC)C(O)C(C)O3)C(C)C(=O)OC(CC)C(C)(O)C(O)C(C)C3=C(C)CC2(C)O3)C1O (stereo not drawn)
3. CCC1OC(=O)C(C)C(OC2CC(C)(OC)C(OC=O)C(C)O2)C(C)C(OC2OC(C)CC([N+](C)(C)C)C2O)C2(C)CC(C)=C(O2)C(C)C(OS(C)(=O)=O)C1(C)O (stereo not drawn)
4. CC[C@H]1OC(=O)[C@H](C)[C@@H](O[C@H]2C[C@@](C)(OC)[C@@H](O)[C@H](C)O2)[C@H](C)[C@@H](O[C@@H]2O[C@H](C)C[C@H]([N+](C)(C)CC)[C@H]2O)[C@@]2(C)CC(C)C(O2)[C@H](C)[C@@H](O)[C@]1(C)O (stereo partly drawn)
5. C#CC[N+](C)(C)[C@H]1C[C@@H](C)O[C@@H](O[C@@H]2[C@@H](C)[C@H](O[C@H]3C[C@@](C)(OC)[C@@H](O)[C@H](C)O3)[C@@H](C)C(=O)O[C@H](CC)[C@@](C)(O)[C@H](O)[C@@H](C)C3O[C@]2(C)CC3C)[C@@H]1O (stereo partly drawn)
6. CCC1OC(=O)C(C)C(OC2CC(C)(OC)C(O)C(C)O2)C(C)C(OC2OC(C)CC(N3CCCCC3)C2O)C2(C)CC(C)=C(O2)C(C)C(O)C1(C)O (stereo not drawn)
7. CC[C@H]1OC(=O)[C@H](C)[C@@H](O[C@H]2C[C@@](C)(OC)[C@@H](OC=O)[C@H](C)O2)[C@H](C)[C@@H](O[C@@H]2O[C@H](C)C[C@H]([N+](C)(C)CC)[C@H]2O)[C@@]2(C)CC(C)=C(O2)[C@H](C)[C@@H](O)[C@]1(C)O

["> 100 µg/mL", "> 100 µg/mL", "> 100 µg/mL", "> 100 µg/mL", "> 100 µg/mL", "> 100 µg/mL", "> 100 µg/mL"]

List MIC for every entry below, keeping the order given.
1. CCC1OC(=O)C(C)C(OC2CC(C)(OC)C(O)C(C)O2)C(C)C(OC2OC(C)CC([N+](C)(C)CC)C2O)C2(C)CC(C)=C(O2)C(C)C(OC(C)=O)C1(C)OC(C)=O (stereo not drawn)
2. CCC1OC(=O)C(C)C(OC2CC(C)(OC)C(O)C(C)O2)C(C)C(OC2OC(C)CC([N+]3(C)CCCCC3)C2O)C2(C)CC(C)=C(O2)C(C)C(O)C1(C)O (stereo not drawn)
3. C=CC[N+](CC=C)(CC=C)C1CC(C)OC(OC2C(C)C(OC3CC(C)(OC)C(O)C(C)O3)C(C)C(=O)OC(CC)C(C)(O)C(O)C(C)C3=C(C)CC2(C)O3)C1O (stereo not drawn)
4. C#CC[N+](C)(C)[C@H]1C[C@@H](C)O[C@@H](O[C@@H]2[C@@H](C)[C@H](O[C@H]3C[C@@](C)(OC)[C@@H](O)[C@H](C)O3)[C@@H](C)C(=O)O[C@H](CC)C(C)[C@H](O)[C@@H](C)C3=C(C)C[C@@]2(C)O3)[C@@H]1O (stereo partly drawn)

1. 50 µg/mL
2. > 100 µg/mL
3. > 100 µg/mL
4. 100 µg/mL
